All values here come from a melting point compilation (Tetko et al.; mined from patent text by program, amines drawn as free bases though some values may be those of a salt).

Entries and their melting point

Entry COc1ccc(C=O)c(Cl)c1OCc1ccccc1 has what melting point? 86 to 88 °C

Entry CC(C)N(CCC(c1ccccc1)c1cc(CO)ccc1OC(=O)c1ccc([N+](=O)[O-])cc1)C(C)C (stereo unspecified) has what melting point? 124 °C

Entry Cn1c(-c2ccc(-c3cccnc3)cc2)cnc1[C@H](Cc1ccccn1)N(C=O)c1cc2cc(Cl)ccc2o1 has what melting point? 158 to 160 °C

Entry CN(Cc1ccc(S(C)(=O)=O)cc1)S(=O)(=O)c1cn(S(=O)(=O)N(C)C)c(C#N)n1 has what melting point? 169 to 172 °C

Entry CCOC(=O)C1=C(N)NC2=C(C(=O)CCC2)C1c1cccc(Cl)c1 (stereo unspecified) has what melting point? 266 °C

Entry Cc1ccc(CNC(=O)c2ccc(F)cc2OCC(=O)O)cc1[N+](=O)[O-] has what melting point? 159 to 160 °C

Entry Oc1ccc2c(c1)CCCC(c1ccccc1)=C2c1ccc(OCCCCCCSCc2ccccn2)cc1 has what melting point? 127 °C

Entry COC(=O)c1c(-c2ccc(F)cc2)c2cc(OCc3ccccc3)ccc2c(=O)n1CC(C)C has what melting point? 118 to 119 °C

Entry CCC(=O)Oc1cc(OC)cc(OC)c1C(=O)C=Cc1ccccc1 has what melting point? 116 to 117 °C

Entry COC(=O)c1ccccc1NC(=O)CNc1ccccc1 has what melting point? 140 to 142 °C

====

Entries and their melting point

COC(=O)c1cc([N+](=O)[O-])c(N2CCSC2=N)c([N+](=O)[O-])c1 138 °C

Next compound, please.
Entry NC(=NO)c1ncn2c1[C@@H]1CCN1C(=O)c1c(Br)cccc1-2 has what melting point? 265 to 266 °C

====

reportedProperty: melting point

compound	measurement
COc1c(Cl)ccc(-c2nc(C(=O)OC(C)C)cc(N)c2F)c1F	177 to 179 °C
CC(C)NC(=O)N1CCc2[nH]cnc2C1c1ccncc1 (stereo not given)	212 °C
O=c1cc(-c2ccccc2)oc2cc(OCC(O)CCCOC3CCCCO3)ccc12 (stereo not given)	110 to 112 °C
Cc1ccccc1C(=NC(=Nc1ccccc1)N1CCC(=O)CC1)Nc1ccc(F)cc1	234 to 235 °C
CCCCn1c(C)c(C)cc(O)c1=O	112 to 116 °C

Entry Cc1nc2c3c(c(CO)cc2n1C)CCC(c1ccccc1)O3 (stereo not given) has what melting point? 279 to 281 °C

Entry O=C1C(=O)N2CCOc3c(Cl)c(Cl)cc1c32 has what melting point? 237 to 238 °C

Entry Cc1ccc(S(=O)(=O)Nc2cnc(C3OCCO3)cc2C)cc1 has what melting point? 155 to 156 °C

Entry COC(=O)[C@@H]1CSCc2c(O[Si](C)(C)C(C)(C)C)cc(OC)c(C)c2C(=O)OC[C@H](O)C(=O)N1 has what melting point? 237 to 240 °C

Entry COc1cc2c(cc1Cl)CC(C)OC2c1ccc([N+](=O)[O-])cc1 (stereo not given) has what melting point? 118 to 120 °C

Entry O=C1N(Cc2ccc(F)cc2)Cc2cncn2C1(Cc1ccccc1)c1ccc(Br)cc1 (stereo not given) has what melting point? 166 to 168 °C

Entry CC(=O)NC(Cc1ccccc1)C1CC(Cc2ccccc2)=NO1 (stereo not given) has what melting point? 97.8 to 98.4 °C

Entry CCOc1cc(-c2cc(C(F)(F)F)n3ncc(-c4ccnc(C)c4)c3n2)ccc1C(F)(F)F has what melting point? 226 °C
